# Test system: WNK2
# STUDY_CONDITIONS: concentration: 1 μM, replicates: in singlicate; n = 1;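 further: KINOMEscan kinase panel screen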
Consider the following compounds and their measured %Inh readings.
REPORTED_PROPERTY: %Inh (%)

>>> obs_value("COc1ccc(NC(=O)c2ccc(-c3cc(-c4nnc(C)o4)ccc3C)cc2)cc1")
1
>>> obs_value("CS(=O)(=O)CCNCc1ccc(-c2ccc3ncnc(Nc4ccc(OCc5ccccc5)c(Cl)c4)c3c2)o1.Cl")
10
>>> obs_value("Fc1cccc(COc2ccc(Nc3ncnc4sc(-c5ccc[nH]5)cc34)cc2Cl)c1")
6

* * *

# System: PKN1
# STUDY_CONDITIONS: concentration: 1 μM, replicates: in singlicate; n = 1
REPORTED_PROPERTY: %Inh (%)

>>> obs_value("C[C@@H]1CCN(C(=O)CO)C[C@@H]1N(C)c1ncnc2[nH]ccc12")
20
>>> obs_value("N#Cc1ccc(Oc2ccc(Nc3ncnc4cc[nH]c34)cc2Cl)cc1")
0
>>> obs_value("Cl.c1ccc(Cn2ccc3cc(Nc4ncnc5ccccc45)ccc32)cc1 [GW275568]")
26
>>> obs_value("Cc1ccc(O)cc1Nc1cc(C(F)(F)F)nc2ccc(-c3ccncc3)cc12 [GW630823]")
0
>>> obs_value("Cl.Cl.c1ccc(-c2cc3ccncc3cc2OC2CCNCC2)cc1 [GSK1122999]")
0
>>> obs_value("Cc1ccc(NC(=O)c2cccc(C#N)c2)cc1-c1ccc(C(=O)Nc2ccncc2)cc1 [GSK1398463]")
28
>>> obs_value("Nc1nc(-c2ccccn2)c(-c2ccnc3ccccc23)s1 [GW548057]")
0
>>> obs_value("c1ccc(-c2ccc3c(-c4ccnc(Nc5ccc6c(c5)OCCO6)n4)cnn3n2)cc1 [GW818941]")
65
>>> obs_value("FC(F)(F)c1ccc(-c2nn3ncccc3c2-c2ccnc(Nc3cccc(C(F)(F)F)c3)n2)cc1 [GW828205]")
0
>>> obs_value("CCCc1ccc(S(=O)(=O)NC2CCN(c3ccnc(Nc4ccc(OC)cc4)n3)C2)cc1 (stereo not drawn) [GSK1379737]")
0
>>> obs_value("O=C(NCCCN1CCCC1=O)c1cnc(NCc2cc(Cl)ccc2Cl)nc1NC1CCNCC1")
20
>>> obs_value("O=C(Nc1ccccc1)Nc1ccc(Oc2ccc3nccn3n2)cc1")
6
>>> obs_value("Clc1cc(Nc2ncnc3cc[nH]c23)ccc1OCc1ccccn1")
23
>>> obs_value("CCC(CC)(CC)n1cnc2c(N)ncnc21 [SKF-97620]")
0
>>> obs_value("CCc1nc(-c2cccc(N(C)S(=O)(=O)c3ccccc3)c2)c(-c2ccnc(Nc3ccc(N4CCN(C(C)=O)CC4)nc3)n2)s1 [GSK1645895]")
34

* * *

The entries below come with measured %Inh values attached.
# System: LTK
# STUDY_CONDITIONS: concentration: 1 μM, replicates: in singlicate; n = 1
REPORTED_PROPERTY: %Inh (%)

>>> obs_value("FC(F)(F)c1cc(Nc2nccc(-c3c(-c4ccc(Cl)cc4)nn4ncccc34)n2)ccc1Cl")
0
>>> obs_value("CCC(CC)(CC)n1cnc2c(N)ncnc21")
6
>>> obs_value("Cl.O=S(=O)(c1cccc(F)c1)c1ccc(Nc2ncnc3cc(Br)sc23)cc1Cl")
0
>>> obs_value("COc1cc2c(Nc3cccc(NC(=O)c4ccccc4)c3)ncnc2cc1OCCCN1CCOCC1")
0
>>> obs_value("Cl.Cl.c1ccc(-c2cc3ccncc3cc2OC2CCNCC2)cc1")
24
>>> obs_value("COc1cc2ncnc(Nc3ccc(OCc4ccccc4Br)c(Cl)c3)c2cc1OC.Cl")
14
>>> obs_value("CN1CCC(n2cnc(-c3ccc(F)cc3)c2-c2ccnc(NC3CCNCC3)n2)CC1")
0
>>> obs_value("CCc1nc(-c2cccc(N(C)S(=O)(=O)c3ccccc3)c2)c(-c2ccnc(Nc3ccc(N4CCN(C(C)=O)CC4)nc3)n2)s1")
0
>>> obs_value("COC(=O)c1cccc(NC(=O)NCCNc2ccnc(Nc3ccc(F)cc3)n2)c1")
0
>>> obs_value("Cn1ccc2ncnc(Oc3ccc(NC(=O)Nc4cccnc4)c(Cl)c3)c21")
6
>>> obs_value("COc1ccc(-c2nc3n(c2-c2ccncc2)CCC3)cc1")
2
>>> obs_value("Cn1cc(-c2ccc3c(c2)CCN3C(=O)Cc2cccc(C(F)(F)F)c2)c2c(N)ncnc21")
15
>>> obs_value("Oc1ccc2ncnc(Nc3ccc(OCc4ccccc4)cc3)c2c1")
82
>>> obs_value("CCCc1ccc(S(=O)(=O)NC2CCN(c3ccnc(Nc4ccc(OC)cc4)n3)C2)cc1 (stereo not drawn)")
100
>>> obs_value("CC(C)(C)c1ccc(-n2cnc3c(N)ncnc32)cc1")
6
>>> obs_value("O=C(NCCCN1CCCC1=O)c1cnc(NCc2cc(Cl)ccc2Cl)nc1NC1CCNCC1")
0
>>> obs_value("Cc1ccc(NC(=O)c2cccc(C#N)c2)cc1-c1ccc(C(=O)Nc2ccncc2)cc1")
0
>>> obs_value("NC(=O)c1sc(-n2cnc3ccccc32)cc1OCc1ccccc1F")
5

Hello, the source for this data is paper PMC5540273, in case you need it.
